From: ChEMBL document CHEMBL1137453

tested on: NHDF; test: Antiproliferative activity against NHDF cells by WST-8 colorimetric assay; type: functional, cell-based; settings: Homo sapiens
readout kind: IC50 (µM)
Your answer is read as µM, so omit the unit and give the number.

Ask | Form field: reported IC50 of CN(C)[C@H]1C[C@@]23CC[C@@]4(O2)C(=CC3=C[C@@H]1O)CC[C@]1(C)[C@@H](c2ccc3ccncc3c2)CC[C@H]14 [CORTISTATIN L]
Reply | 2.4

Ask | Lookup CN(C)[C@@H]1CC=C2C=C3CC[C@]4(C)[C@@H](c5ccc6ccncc6c5)CC[C@H]4[C@@]34CC[C@]2(C1)O4 [CORTISTATIN K]
Reply | 2.5
